Reported IC50 by item:
Tested on: Bel-7402
protocol text: Cytotoxicity against human BEL-7402 cells after 72 hrs by MTT assay
Type: functional, cell-based
test context: Bel-7402, 72 h
# output: bare number, implied unit µM

| compound | IC50 / µM |
| --- | --- |
| C/C1=C/CC(=O)O[C@@]23C(=O)N[C@@H](Cc4ccc(O)cc4)[C@@H]2[C@H](C)[C@@]2(C)O[C@H]2[C@@H]3/C=C/C[C@H](C)C1=O | 94 |

Value lookup for IC50; key = `CC1=C(C)[C@H]2[C@H](Cc3ccccc3)NC(=O)[C@@]2(O)[C@@H](/C=C/C[C@H](C)C(=O)[C@H](C)O)[C@@H]1O` 88
